assay: Solubility of Formula (I) in simulated gastric and fasted simulated intestinal fluid; format: physicochemical; conditions: fasted simulated intestinal fluid, pH 6.5, fassif; read-out: solubility in fasted simulated intestinal fluid
measure: solubility

Return the recorded solubility value; entry: COc1cc(CCc2cc(NC(=O)c3ccc(N4C[C@@H](C)N[C@@H](C)C4)cc3)n[nH]2)cc(OC)c1
~250 µg/mL
